melting point overview

Field: example entries. Status: answers known.
Cc1noc(CCCCCCCOc2ccc(C3=NCCO3)cc2Cl)c1CO    53 to 54 °C
CN(C)C(=O)c1ccc2c(c1)C(c1ncnc3cc(OCCCN4CCOCC4)ccc13)C(=O)N2 (stereo not given)    168 to 169 °C
CC(C)=CCN(CCC12CC3CC(CC(C3)C1)C2)C(=O)NCCCc1ccncc1    93 to 96 °C
CCCCN1C(=O)C2C3CCC(O3)C2C1=O (stereo not given)    82 to 83 °C

Now examine the next entry.
Exercise: Tell us which melting point value is on record for O=C(O)Cc1cc2c3ccccc3[nH]c(=O)n2n1
Solution: 253 to 254 °C
